Biological target: T1, P2-AA-12HGe-D
T1 chain: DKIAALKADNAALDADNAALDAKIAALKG
Assay: two-hybrid library CCmax;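 note: natural log of median RNA to DNA barcode read ratio; higher means stronger binding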
Settings: mean of both orientations
Attribute: interaction score
I'd appreciate a reply containing only the number, no unit.

BINDER	RECORDED NUMBER
DEIAALEATNAALTATNAALTAEIAALEG [P1-AA-12HGe-T]	-1.6
DEIAALEARNAALRARNAALRAEIAALEG [P1-AA-12HGe-R]	1.05
DEIAALEAYNAALYAYNAALYAEIAALEG [P1-AA-12HGe-Y]	-1.65
DEIAALEAANAALAAANAALAAEIAALEG [P1-AA-12HGe-A]	-1.64
DEIAALEAHNAALHAHNAALHAEIAALEG [P1-AA-12HGe-H]	-1.6

// sample DEIAALEAQNAALQAQNAALQAEIAALEG [P1-AA-12HGe-Q] , its interaction score was -1.92

Looking up DEIAALEAWNAALWAWNAALWAEIAALEG [P1-AA-12HGe-W] , I see its interaction score listed as -1.76

Input DEIAALEAMNAALMAMNAALMAEIAALEG [P1-AA-12HGe-M] . Output interaction score: -1.52

Form field interaction score, entry DEIAALEADNAALDADNAALDAEIAALEG [P1-AA-12HGe-D] : -1.75

Value of interaction score reported for the binder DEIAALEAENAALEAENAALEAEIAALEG [P1-AA] is -1.71

What the record says about DEIAALEAKNAALKAKNAALKAEIAALEG [P1-AA-12HGe-K] : interaction score is 0.189
